Taken from patent US7329682B2.

Target: 5-lipoxygenase (Mus musculus, UniProt P48999)
Construct: over 98% of cells were confirmed as mast cells originated from bone marrow; endogenous in cells; host or cells: bone marrow-derived mast cells from male BALB/cJ mice
Sequence (P48999 1-674): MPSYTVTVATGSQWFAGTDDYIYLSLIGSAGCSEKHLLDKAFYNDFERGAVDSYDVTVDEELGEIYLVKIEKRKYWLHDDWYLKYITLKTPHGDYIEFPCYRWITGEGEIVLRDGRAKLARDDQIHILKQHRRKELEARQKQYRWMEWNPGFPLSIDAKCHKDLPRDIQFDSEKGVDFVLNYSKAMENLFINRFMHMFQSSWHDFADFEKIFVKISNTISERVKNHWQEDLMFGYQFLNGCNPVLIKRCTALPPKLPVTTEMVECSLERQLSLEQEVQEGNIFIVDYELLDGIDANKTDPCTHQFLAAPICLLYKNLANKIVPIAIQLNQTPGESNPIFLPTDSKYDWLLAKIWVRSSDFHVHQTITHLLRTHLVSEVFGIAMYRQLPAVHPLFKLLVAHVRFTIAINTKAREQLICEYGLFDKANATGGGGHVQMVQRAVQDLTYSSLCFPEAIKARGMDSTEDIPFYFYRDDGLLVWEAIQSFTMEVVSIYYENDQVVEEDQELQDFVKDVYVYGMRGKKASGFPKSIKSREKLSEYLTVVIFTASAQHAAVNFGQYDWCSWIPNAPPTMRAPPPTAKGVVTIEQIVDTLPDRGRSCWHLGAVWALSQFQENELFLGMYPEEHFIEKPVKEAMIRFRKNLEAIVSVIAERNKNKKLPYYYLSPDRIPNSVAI
Assay: Measurement of 5-lipoxygenase inhibition activity (free LTC4 from SCF-stimulated bone marrow-derived mast cells, enzyme immunoassay)
Type: cell-based, mouse (male BALB/cJ mice)
Settings: mast cells originated from bone marrow of BALB/cJ mice, 1×10^6 cells/ml; 30 min preincubation at 37° C.; 100 ng/ml SCF stimulation 20 min; free LTC4 by enzyme immunoassay; vs non-treated control; read-out: IC50
assay-endpoint: pIC50
// pIC50 here means minus log10 of the molar concentration (mol/L)

-- ask Which measured pIC50 value corresponds to "c1ccc(Nc2nc3ccccc3o2)cc1" ?
-- reply 5.05
